Sourced from ChEMBL document CHEMBL1961873

# target-of-assay: Discoidin domain-containing receptor 2 (Homo sapiens) (UniProt Q16832);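 also: reported figure is the mean inhibition of DDR2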
# Sequence (Q16832 whole entry, the tested form may be a part): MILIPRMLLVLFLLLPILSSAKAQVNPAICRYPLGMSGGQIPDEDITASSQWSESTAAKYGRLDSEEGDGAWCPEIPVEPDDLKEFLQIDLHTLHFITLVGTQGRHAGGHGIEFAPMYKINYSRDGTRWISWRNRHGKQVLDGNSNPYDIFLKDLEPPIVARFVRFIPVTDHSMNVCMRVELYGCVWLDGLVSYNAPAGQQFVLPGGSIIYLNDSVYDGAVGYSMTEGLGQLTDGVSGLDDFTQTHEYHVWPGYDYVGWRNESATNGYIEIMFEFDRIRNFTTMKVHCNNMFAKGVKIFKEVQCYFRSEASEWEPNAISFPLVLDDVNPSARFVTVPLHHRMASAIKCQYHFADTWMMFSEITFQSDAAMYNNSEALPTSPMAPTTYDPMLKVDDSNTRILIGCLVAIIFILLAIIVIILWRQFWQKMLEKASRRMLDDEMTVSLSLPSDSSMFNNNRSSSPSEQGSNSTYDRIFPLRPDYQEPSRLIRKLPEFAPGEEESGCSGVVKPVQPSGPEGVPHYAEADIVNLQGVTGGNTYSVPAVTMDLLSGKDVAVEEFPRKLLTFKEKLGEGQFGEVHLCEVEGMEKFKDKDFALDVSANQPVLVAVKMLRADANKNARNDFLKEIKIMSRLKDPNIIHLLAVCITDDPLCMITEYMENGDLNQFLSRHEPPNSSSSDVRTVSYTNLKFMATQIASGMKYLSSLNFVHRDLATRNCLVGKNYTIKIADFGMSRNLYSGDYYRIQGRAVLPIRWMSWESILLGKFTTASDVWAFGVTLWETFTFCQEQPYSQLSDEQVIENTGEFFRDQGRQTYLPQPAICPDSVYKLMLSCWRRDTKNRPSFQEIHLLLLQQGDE
# test-context: at 1 µM
inhibition overview

{"columns": ["smiles-entry", "inhibition (%)"],
 "data": [
  ["O=C(Nc1n[nH]c2nc(-c3ccco3)ccc12)C1CC1", 7.53],
  ["CCc1nccc2c1nc(-c1nonc1N)n2CC", 2.38],
  ["NS(=O)(=O)c1ccc(Nc2cc(-c3ccc(O)c(F)c3)n[nH]2)cc1", 18.8],
  ["Fc1ccc(-c2nc3n(c2-c2ccncc2)CCS3)cc1", 4.83],
  ["Cc1nnc(-c2ccc(C)c(-c3ccc(C(=O)NCc4ccc(Cl)cc4)cc3)c2)o1", -0.21],
  ["COC(=O)Nc1nc2ccc(Sc3ccc(NC(=O)Nc4cc(C(F)(F)F)ccc4F)cc3)cc2[nH]1", 83.5],
  ["O=C1Nc2ccc(I)cc2C1=Cc1cc(Br)c(O)c(Br)c1", 3.44],
  ["CS(=O)(=O)CCNCc1cc(-c2cc3c(Nc4ccc(OCc5cccc(F)c5)c(Cl)c4)ncnc3s2)cs1", 6.01],
  ["C#Cc1cccc(Nc2ncnc3ccc(OCCCCNCCS(C)(=O)=O)cc23)c1", 9.88],
  ["O=C(Nc1n[nH]c2cc(-c3ccccc3)ccc12)C1CC1", 5.94]
]}

----------
The reader will find reported inhibition values listed item by item below.
# target-of-assay: Serine/threonine-protein kinase Sgk1 (Homo sapiens) (UniProt O00141)
# Sequence (O00141 whole entry): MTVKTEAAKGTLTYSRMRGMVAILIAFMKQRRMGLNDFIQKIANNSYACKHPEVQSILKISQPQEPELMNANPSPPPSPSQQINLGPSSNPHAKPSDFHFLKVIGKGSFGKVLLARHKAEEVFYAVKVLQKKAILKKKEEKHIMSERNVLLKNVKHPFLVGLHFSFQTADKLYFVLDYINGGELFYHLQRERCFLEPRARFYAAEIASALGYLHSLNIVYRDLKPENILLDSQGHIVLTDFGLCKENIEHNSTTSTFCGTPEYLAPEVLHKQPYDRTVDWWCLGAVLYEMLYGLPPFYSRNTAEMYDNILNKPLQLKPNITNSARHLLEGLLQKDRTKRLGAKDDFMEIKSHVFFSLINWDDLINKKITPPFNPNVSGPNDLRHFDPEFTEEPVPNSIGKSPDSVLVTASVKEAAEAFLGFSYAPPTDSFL
# test-context: at 0.1 µM
# Description: GSK_PKIS: SGK1 mean inhibition at 0.1 uM [Nanosyn]

{"columns": ["smiles-entry", "target-of-assay", "inhibition, %"],
 "data": [
  ["CCS(=O)(=O)c1ccc(OC)c(Nc2ncc(-c3cccc(-c4ccccc4F)c3)o2)c1", "Serine/threonine-protein kinase Sgk1 (Homo sapiens) (UniProt O00141)", 1.23],
  ["C/C(Nc1ccc(S(N)(=O)=O)cc1)=C1/C(=O)Nc2ccccc21", "Serine/threonine-protein kinase Sgk1 (Homo sapiens) (UniProt O00141)", 5.32],
  ["O=C1NC(=O)C(c2cccc(Cl)c2)=C1Nc1ccc(Cl)c(C(=O)O)c1", "Serine/threonine-protein kinase Sgk1 (Homo sapiens) (UniProt O00141)", 3.35],
  ["CNC(=O)c1cncc(/C=C/c2c(C)cccc2C)c1", "Serine/threonine-protein kinase Sgk1 (Homo sapiens) (UniProt O00141)", 0.67],
  ["COc1cc(Nc2ncc3c(C)nc(-c4cccc(C(F)(F)F)c4)n3n2)cc(OC)c1OC", "Serine/threonine-protein kinase Sgk1 (Homo sapiens) (UniProt O00141)", 3.85],
  ["Fc1ccc(-c2ncn(C3CCNCC3)c2-c2ccnc(Oc3ccc(Oc4ccccc4)cc3)n2)cc1", "Serine/threonine-protein kinase Sgk1 (Homo sapiens) (UniProt O00141)", 1.53],
  ["NC(=O)c1ccc(Oc2nccc(-c3c(-c4ccc(F)cc4)ncn3C3CCNCC3)n2)cc1", "Serine/threonine-protein kinase Sgk1 (Homo sapiens) (UniProt O00141)", 2.88],
  ["Cc1nnc(-c2ccc(C)c(-c3ccc(C(=O)NCc4ccc(Cl)cc4)cc3)c2)o1", "Serine/threonine-protein kinase Sgk1 (Homo sapiens) (UniProt O00141)", 5.07],
  ["COc1ccc(-c2ccc3c(NC(=O)C4CC4)n[nH]c3n2)cc1", "Serine/threonine-protein kinase Sgk1 (Homo sapiens) (UniProt O00141)", 1.6],
  ["Fc1ccc(-c2c(-c3ccncc3)nc3n2CCS3)cc1", "Serine/threonine-protein kinase Sgk1 (Homo sapiens) (UniProt O00141)", 3.2]
]}
